# System: LP-1 cell line (FGF-1/Heparin induced pERK)
# test-description: Cell-based pERK ELISA, LP-1 cells
# experimental-setup: Homo sapiens, LP-1, read-out: LP-1 pERK ELISA (μM)
Where a name gives a salt, the structure may show the parent alone.
# strict inequality: IC50 < 0.02 µM yields met, everything else yields not met

(Q) Regarding O=C(NCC(F)(F)F)Nc1cncc(-c2cnc3cc(C#CC4CC4)ccn23)c1 , kindly confirm whether its IC50 is beneath 0.02 µM.
(A) not met

(Q) Regarding NC(=O)Nc1cccc(-c2cnc3cc(-c4nncs4)ccn23)c1 , kindly confirm whether its IC50 is beneath 0.02 µM.
(A) not met

(Q) Regarding Nc1nc(-c2ccn3c(-c4cccc(NC(=O)NCC(F)(F)F)c4)cnc3c2)ncc1C(F)(F)F , kindly confirm whether its IC50 is beneath 0.02 µM.
(A) met

(Q) Regarding Cc1cc(=O)n2nc(-c3ccn4c(-c5cccc(NC(=O)NCC(F)(F)F)c5)cnc4c3)sc2n1 , kindly confirm whether its IC50 is beneath 0.02 µM.
(A) not met

(Q) Regarding COc1ccc(-c2ccn3c(-c4cccc(NC(=O)NCC(F)(F)F)c4)cnc3c2)nn1 , kindly confirm whether its IC50 is beneath 0.02 µM.
(A) met

(Q) Regarding O=C(NCC(F)(F)F)Nc1cccc(-c2cnc3cc(-c4ccc(N5CCCCC5)nn4)ccn23)c1 , kindly confirm whether its IC50 is beneath 0.02 µM.
(A) met

(Q) Regarding COc1cccc(-c2ccn3c(-c4cccc(NC(=O)NCC(F)(F)F)c4)cnc3c2)n1 , kindly confirm whether its IC50 is beneath 0.02 µM.
(A) not met

(Q) Regarding CC(C)(C(N)=O)n1cc(-c2ccn3c(-c4cccc(NC(=O)NCC(F)(F)F)c4)cnc3c2)cn1 , kindly confirm whether its IC50 is beneath 0.02 µM.
(A) not met

(Q) Regarding O=C(NCC(F)(F)F)Nc1cccc(-c2cnc3cc(/C=C/c4ccccn4)ccn23)c1 , kindly confirm whether its IC50 is beneath 0.02 µM.
(A) met

(Q) Regarding O=C(NCC(F)(F)F)Nc1cccc(-c2cnc3cc(-c4cnccn4)ccn23)c1 , kindly confirm whether its IC50 is beneath 0.02 µM.
(A) not met

(Q) Regarding O=C(NCC(F)(F)F)Nc1cccc(-c2cnc3cc(-c4nnc(CCN5CCCCC5)s4)ccn23)c1 [Example 22, hydrochloride] , kindly confirm whether its IC50 is beneath 0.02 µM.
(A) met

(Q) Regarding CC(C)(C(=O)N1CCC1)n1cc(-c2ccn3c(-c4cccc(NC(=O)NCC(F)(F)F)c4)cnc3c2)cn1 , kindly confirm whether its IC50 is beneath 0.02 µM.
(A) not met

(Q) Regarding NC1CCN(c2ccc(-c3ccn4c(-c5cccc(NC(=O)NCC(F)(F)F)c5)cnc4c3)nn2)CC1 [Example 75, trifluoroacetate] , kindly confirm whether its IC50 is beneath 0.02 µM.
(A) not met

(Q) Regarding Cn1cc(C#Cc2ccn3c(-c4cccc(NC(=O)NCC(F)(F)F)c4)cnc3c2)cn1 [Example 56, formate] , kindly confirm whether its IC50 is beneath 0.02 µM.
(A) not met

(Q) Regarding COc1cnc(-c2ccn3c(-c4cccc(NC(=O)NCC(F)(F)F)c4)cnc3c2)nc1N , kindly confirm whether its IC50 is beneath 0.02 µM.
(A) not met

(Q) Regarding COc1cncc(-c2ccn3c(-c4cccc(NC(=O)NCC(F)(F)F)c4)cnc3c2)n1 [Example 90, formate] , kindly confirm whether its IC50 is beneath 0.02 µM.
(A) not met

(Q) Regarding Cc1cnc(N)nc1-c1ccn2c(-c3cccc(NC(=O)NCC(F)(F)F)c3)cnc2c1 , kindly confirm whether its IC50 is beneath 0.02 µM.
(A) not met

(Q) Regarding CCN1CCC(n2cc(-c3ccn4c(-c5cccc(NC(=O)NCC(F)(F)F)c5)cnc4c3)cn2)C1 (stereo not drawn) , kindly confirm whether its IC50 is beneath 0.02 µM.
(A) not met

(Q) Regarding O=C(Nc1cccc(-c2cnc3cc(-c4ccc(F)cc4)ccn23)c1)NC1CC1 , kindly confirm whether its IC50 is beneath 0.02 µM.
(A) not met

(Q) Regarding O=C(NCC(F)(F)F)Nc1cncc(-c2cnc3cc(-c4nncs4)ccn23)c1 [Example 24, hydrochloride] , kindly confirm whether its IC50 is beneath 0.02 µM.
(A) not met

(Q) Regarding O=C(NCC(F)(F)F)Nc1cccc(-c2cnc3cc(-c4ccc(=O)n(CCO)n4)ccn23)c1 , kindly confirm whether its IC50 is beneath 0.02 µM.
(A) not met

(Q) Regarding Cc1cnc(-c2ccn3c(-c4cccc(NC(=O)NCC(F)(F)F)c4)cnc3c2)cn1 , kindly confirm whether its IC50 is beneath 0.02 µM.
(A) not met

(Q) Regarding O=C1CN(c2ccc(-c3ccn4c(-c5cccc(NC(=O)NCC(F)(F)F)c5)cnc4c3)nn2)CCN1 [Example 95, hydrochloride] , kindly confirm whether its IC50 is beneath 0.02 µM.
(A) not met

(Q) Regarding O=C(NCC(F)(F)F)Nc1cccc(-c2cnc3cc(-c4cnn(C5CCNCC5)c4)ccn23)c1 [Example 4, hydrochloride] , kindly confirm whether its IC50 is beneath 0.02 µM.
(A) not met

(Q) Regarding Cn1cncc1C#Cc1ccn2c(-c3cccc(NC(=O)NCC(F)(F)F)c3)cnc2c1 [Example 13B, dihydrochloride] , kindly confirm whether its IC50 is beneath 0.02 µM.
(A) not met

(Q) Regarding Nc1ccc(-c2ccn3c(-c4cccc(NC(=O)NCC(F)(F)F)c4)cnc3c2)nc1 [Example 124, hydrochloride] , kindly confirm whether its IC50 is beneath 0.02 µM.
(A) not met

(Q) Regarding Nc1ccnc(-c2ccn3c(-c4cccc(NC(=O)NCC(F)(F)F)c4)cnc3c2)c1 [Example 108, diformate] , kindly confirm whether its IC50 is beneath 0.02 µM.
(A) not met

(Q) Regarding Nc1cnc(-c2ccn3c(-c4cccc(NC(=O)NCC(F)(F)F)c4)cnc3c2)nc1 , kindly confirm whether its IC50 is beneath 0.02 µM.
(A) not met

(Q) Regarding COCCc1nnc(-c2ccn3c(-c4cccc(NC(=O)NCC(F)(F)F)c4)cnc3c2)s1 , kindly confirm whether its IC50 is beneath 0.02 µM.
(A) met
